Recorded MIC for the following molecules
# Tested on: E. coli
# experimental protocol: Gram negative MIC protocol (OD600, LB, 24 h)
# run parameters: Escherichia coli, read-out: MIC WT E. coli LB Media, wild-type E. coli, LB media, 24 h, OD600
Structures can show the parent of a compound that is named as a salt.

molecule	observed property	result
COc1cccc2c1B(O)OC2CNCc1ccccc1 (stereo not drawn) [B220, hydrochloride]	MIC	> 300 µM
CC(CC1CCCCC1)NCc1ccccc1OCc1ccccn1 (stereo not drawn)	MIC	> 150 µM
CC(CC1CCCCC1)NCc1ccccc1OCCOC1CCCC1 (stereo not drawn)	MIC	> 150 µM
CC(CC1CCCCC1)NCc1ccccc1OCCC(C)(C)O (stereo not drawn)	MIC	150 µM
CC(CC1CCCCC1)NCc1ccccc1OCC(=O)N(C)Cc1ccco1 (stereo not drawn)	MIC	> 150 µM

Turning to the following molecule.
Problem: Value lookup for MIC; key = CC(CC1CCCCC1)NCc1ccccc1OC1CCC1 (stereo not drawn)
Solution: 91 µM
